Reference source: the nanobody polyreactivity screen of Harvey et al. (2022)

test.summary: yeast display, Sf9 membrane polyspecificity reagent, FACS + sequencing; frameworks hold sequencing errors
metric.name: polyreactivity (PSR sort gate)

Example entries and their recorded answers appear below.
QVQLVESGGGLVQAGGSLRLSCAASGSIFSRYAMGRYRQAPGKERELVAAISKSGGSTYYADSVKGRFTISRDNAKNTVYLQMNSLKPEDTAVYYCNARDSPGQRRAEPYGYWGQGTQVTVSS | high polyreactivity
QVQLVESGGGLVQAGGSLRLTCAASGGILYYNAMGWYRQAPGKEREVVAAISRSGITYYADSVKGRFTISRDNAKNTVYLQMNSLKPEDTAVYYSNTVPWRRWGYDYWGQGTQVTVSS | high polyreactivity
QVQLVESGGGLVQAGGSLRLSCAASGSNSGYYVMGWYRQAPGKERELVAAITWRGGSTYYADSVKGRFTISRDNAKNTVYLQMNSLKPEDTAVYYCARSRYLWYTVPPKYGYWGQGTQVTVSS | high polyreactivity
QVQLVESGGGLVQAGGSLRLSCAASGIIFGWYAMGWYRKAPGKERELVAAISSGGRTNYADSVKGRFTISRDNAKNTVYLQMNSLKPEDTAVYYCAAAYIRGSRRYDYWGQGTQVTVSS | high polyreactivity
QVQLVESGGGLVQAGGSLRLSCAASGFTFGYYAMGWSRQAPGKESELLATITSSGASTYADSVKGRFTISRDNAKNTVYLQMNSLKPEDTAVYYCAADRLPSYWSWYGYDYWGQGTQVTVSS | high polyreactivity

Q) Give its polyreactivity (PSR sort gate) value. Item: `QVQLVESVVGLVQAVGTLRLSSAATGSTIYRNAMGWYRQPPGKEREFVAAISFRGGGTYADSVKGRFTISRDNAKNTVYLQMNSLKPEDTAVYYCAADHLSYRRRYEYWGQGTQVTVSS`
A) low polyreactivity

Q) Consider next the sequence `QVQLVESGGGLVQAGGSLRLSCAASGSTFGRYAMGWYRQAPGKERELVARISWGGGSTYYADSVKGRFTISRDNAKNTVYLQMNSLKPEDTAVYYCATRVYRSAVSYDYWGQGTQVTVSS` in the same way.
A) high polyreactivity

Q) Another sequence: `QVQLVESGGGLVQAGGSLRLSCAASGRTFIQYAMGWYRQAPGKERELVAAISLSGGSTYYADSVKGRFTISRDNAKNTVYLQMNSLKPEDTAVYYCNAGYYWGQGTQVTVSS`
A) high polyreactivity

Q) `QVQLVESGGGLVQAGGSLRLSCAASGFIFYPYAMGWYRQAPGKERELVAVITSGGRTYYADSVKGRFTISRDNAKNTVYLQMYSLKPEDTAVYYCNADTFQWWDIADVYVIVKYGYWGQGTQVTVSS` ?
A) low polyreactivity

Q) Now the sequence `QVQLVESGGGLVQAGGSLRLSCAASGSIFIGNTMGWYRQAPGKERELVATIRRSGSRTYYADSVKGRFTISRDNAKNTVYLQMNSLKPEDTAVYYCAADRLRNSGYKTIYDYWGQGTQVTVSS`
A) low polyreactivity

====

test.summary: yeast display, Sf9 membrane polyspecificity reagent, FACS + sequencing; frameworks hold sequencing errors
metric.name: polyreactivity (PSR sort gate)

Below: 6 sequences and their reported polyreactivity (PSR sort gate).
QVQLVESGGGLVQAGGSLRLSCASSGLIFWKYAMVWYRQAPGKERELVAAIRKSVGSTYYADSVKGRFTISRDNAKNTVFLQMNSLKPEDTAVYFCAAVYAGVGSQVKPDYCGQGTQVTVSS | high polyreactivity
QVQLVESGGGLVQAGGSLRLSCAASGFTFWQYAMGWYRQAPGKERELGAAITWDGGSTYYADSVKGRFTISRDTAKNTVYLQMNSLKPEDTAVYYRAKLFGGTYYEYDYWGQGTQVTVSS | low polyreactivity
QVQLEESGGGLVQAGGSLRLSCAASGSTLIDNVMVWYRQAPGKERELVASITSSDGTTYADSVKGRITISRDNAKNTVYLQMNSLIPEDTAVYYCAARPWYGTYNYWGQGTQVTVSS | low polyreactivity
QVQLVESGGGLVQAGGSLRLSCAASGFIFDTYAMGWYRQAPGKERELVATINDRGDSTSYADSVKGRFTISRDNAKNTVYLQMNSLKPEDTAVYYCARTWGLRYRWSYGRSRYNYWGQGTQVTVSS | low polyreactivity
QVQLVESGGGLLQAGGSLRLSCAASVSIFEYYPMGWYRPAPGKERELVADITWSGGSTYYADSVKGRFTISRDNAKNTVDLQMNSLKPEDSAVYYCAKGYYVYGIFHRFGYYWGQGTQVTVSS | high polyreactivity
QVQLVESVGGLVQAGGSLRLSCAASGNNFDIYDMGWYRQAPGKERELVAAISSGGSTYYADSVKGRFTISRDTAKNTVYFQMNSLKPEDSAVYYCAESRVGYYRYEYWGQGTQVTVSS | low polyreactivity

Q) Which polyreactivity (PSR sort gate) is reported for this sequence? `QVHLVESGGGLGKAGGSLRLTCAASGSTFKYYAMAWYRQAPGKETELVAAISQRGGSTYYADSVKGRFTISRYNAKNTVYLQMNCLKPEDTAVYYCNAGFQRAYSGPGYDMDYWGQGTQVTVSS`
A) high polyreactivity

Q) Same lookup for `QVQLVESGGGLVQAGGSLRLSCAPSGFTFSRYAMGWYRQAPGKERELVAAITRGGGNTYYADSVKGRFTISRDNAKNTVYLQMNSLKPEDTAVYYCNAQVGNFGYRSGGYDYWGQGTQVTVSS` , please.
A) high polyreactivity

Q) How about `QVQLVESGGGLGQAGGSLRLSCAASGRTVYYNGMGWYRPAPGKEREVVAAITSGGTTSYADSVKGRFTISRDNAKNTVYLQMISLKPEETAVYYSNADYWAVNYDYWGQGTQVTVSS` ?
A) low polyreactivity

Q) Also `QVQLVESGGGLVQAGGSLRLSCAASGFIFSYYAMGWYRQAPRKERELVAAISKRGGGTYYADSVKGRFTISRDNAKNTVYLQMNSLKPEDTAVYYCNKDGGYGTGSSREYDSWGQGTQVTVSS` ?
A) high polyreactivity

Q) And the next one, `QVQHVESRGGLVQAGGSLRLSCAASGRIFPRYAMGWYRQAPGKERELVAAISWSGGSTYYADSVKGRFTISRDNAKNTVYLQMNSLKPEDTAVYYCAARGRLRYSGSIIYYWGQGTQVTVSS` ?
A) high polyreactivity

====

test.summary: yeast display, Sf9 membrane polyspecificity reagent, FACS + sequencing; frameworks hold sequencing errors
metric.name: polyreactivity (PSR sort gate)

QVQLVESGGGLVQAGGSLRLSCAASGFIFKQYAMGWYRQAPGKERELVAAISWTGGSTYYADSVKGRFTISRDNAKNTVYLQMNSLKPEDTAVYYCAAKRRTRQSYYTEYYWGQGTQVTVSS | high polyreactivity
HVQLVESGGGLVQAGGSLRLSCAASGRISIRNAMGWYRQAPGKERELGAAISRSGGSTYYADSVKGRFTISRDNAKNTVYIQMNSLKPEDTAVYYCAASFWSSGQWYDYWGQGTQVTVSS | high polyreactivity

====

test.summary: yeast display, Sf9 membrane polyspecificity reagent, FACS + sequencing; frameworks hold sequencing errors
metric.name: polyreactivity (PSR sort gate)

Example entries begin here.
QVQLVESGGGLVQAGGSLRLSCAASGITFYQYALGWYRQAPGKERELVARISYSGGSTYADSVKGRFTISRDNAKNTVYLQMNSLKPEDTAVYYCATAYRFRYGFANRYDYWGQGTQVTVSS | low polyreactivity
EEELVESGGGIVQAGGSLRLSCAASGFIFGYNAMGWYRQAPGKERELVAAISSGDDTNYADSVKGRFTISRDNAKNTVYLQMNSLKPEDTAVYYCAAEVWTAFTLGSYWSVVDYDYWGQGTQVSVSS | low polyreactivity
QVQLVESGGGLVKAGGSLRLSCAASGRTFRAYAMGWYRQAPGKERELVAAITSGGSTKYADSVKGRFTISRDNAKNTVYLQMNSLKPEETAVYYCNARFDRVYQLKWWYSYDYWGQCTQVTVSS | high polyreactivity
QVQLVESGGGLVQAGGSLRLSCAASGFTLGTNTMGWYRQAPGKEREFVAAISGRGSSTYYADSVKGRFTISRDNAKNTVYLQMNSLKPEDTAVYYCNKVFWPHPKVVTGNYWGQGTQVTVSS | high polyreactivity
QVQLVETGGGLVQAGGSLRLSCAASVFTFPTYTMGWYRQAPGKEREFVARITKRGGSTYYADSVKGRFTISRVNVKNTVYLQRKCVKPEDTAVYYCDAGFWWSSYGYWGQGSQVTVSS | high polyreactivity
QVQLVESGGGLVQAGGSLRLSCAASGITFGYYAMGWYRPAPGKERELVAAITYSGGSTYYADSVKGRFTISRDNAKNTVYLQMNCLKPEDTAVYDCAAERYVRVWVAGILHYDYWGQGTQVTVSS | low polyreactivity

Q) Which polyreactivity (PSR sort gate) is reported for this sequence? `QVQLVESGGGLVQAGGSLRLSCAASGRTFYFYTMGWYRQAPGKERELVAAITSGGSTNYADSVKGRFTISRDNAKNTVYLQMNSLKPEDTAVYYCAAIYYRVYGYGLRMYYWGQGTQVTVSS`
A) high polyreactivity

Q) What about `QVQHVESGGGLVQAGGSLRLSCAASGSTLSRYVMGWDRQAPGKERELVASISWTGTRTYYADSVKGRFTISRDNAKNTVYLQMNSLKPEDTAVYYCNAVSRGGRLYDYWGQGTQVTVSS` ?
A) high polyreactivity
